tested on: NRK; assay: Cytotoxicity against rat NRK cells assessed as reduction in cell viability incubated for 24 hrs under 2% O2 condition by WST-1 assay; format: cell-based
Let's look at some compounds and their measured pEC50.
The value called pEC50 is obtained by taking minus log10 of the concentration in mol/L.

CN(C)C(=O)Oc1cccc2c1[n+]([O-])c1ccccc1[n+]2[O-]; 4.60
CCN(CC)C(=O)COc1cccc2c1[n+]([O-])c1cc(C)c(C)cc1[n+]2[O-]; 4.28
CCOC(=O)COc1cccc2c1[n+]([O-])c1cc(Cl)c(Cl)cc1[n+]2[O-]; 5.33
CCN(CC)C(=O)COc1cccc2c1[n+]([O-])c1ccccc1[n+]2[O-]; 4.80
CN1CCN(C(=O)Oc2cccc3c2[n+]([O-])c2cc4ccccc4cc2[n+]3[O-])CC1; 5.12

Supply recorded pEC50 for `O=C(Oc1cccc2c1[n+]([O-])c1ccccc1[n+]2[O-])N1CCCC1` here.
4.68

State its pEC50 for this compound: `COc1cccc2c1[n+]([O-])c1cccc(OC(=O)N3CCCC3)c1[n+]2[O-]`
4.46

====

system: MOLM-13; assay: Cytotoxicity against human MOLM13 cells assessed as reduction in cell viability incubated for 24 hrs under 19% O2 condition by WST-1 assay; format: functional, cell-based; settings: MOLM-13, 24 h
result type: pEC50
Please keep in mind that pEC50 is minus log10 of the molar concentration; only the number is needed.

The following molecules have reported results that may help.
CCN(CC)C(=O)COc1cccc2c1[n+]([O-])c1ccccc1[n+]2[O-]; 5.92
CCCCC(=O)Oc1cccc2c1[n+]([O-])c1cccc(OC(=O)CCCC)c1[n+]2[O-]; 4.44
CCOC(=O)COc1cccc2c1[n+]([O-])c1ccccc1[n+]2[O-]; 5.82
COc1cccc2c1[n+]([O-])c1cccc(OC(=O)N(C)C)c1[n+]2[O-]; 5.72
O=C(Oc1cccc2c1[n+]([O-])c1cccc(O)c1[n+]2[O-])N1CCCC1; 6.07

Let me know recorded pEC50 for `CC(C)(C)C(=O)Oc1cccc2c1[n+]([O-])c1cccc(OC(=O)C(C)(C)C)c1[n+]2[O-]` , thanks.
4.96

Supply measured pEC50 of `Cc1cc2c(cc1C)[n+]([O-])c1c(O)cccc1[n+]2[O-]` in your reply.
5.55

Using the record for `CN1CCN(C(=O)Oc2cccc3c2[n+]([O-])c2ccccc2[n+]3[O-])CC1` , state its measured pEC50.
5.82

Using known records, supply pEC50 for `CCOC(=O)COc1cccc2c1[n+]([O-])c1cc(Br)c(Br)cc1[n+]2[O-]`
5.62

Please give measured pEC50 of the following entry: `COc1cccc2c1[n+]([O-])c1cccc(OC(=O)N3CCCC3)c1[n+]2[O-]`
5.70

Supply recorded pEC50 for `CCOC(=O)COc1cccc2c1[n+]([O-])c1cc(C)c(C)cc1[n+]2[O-]` here.
5.08

Identify measured pEC50 corresponding to `CN1CCN(C(=O)Oc2cccc3c2[n+]([O-])c2cc(Br)c(Br)cc2[n+]3[O-])CC1`
6.39

Indicate the recorded pEC50 value for this molecule: `Cc1cc2c(cc1C)[n+]([O-])c1c(OC(=O)N3CCCC3)cccc1[n+]2[O-]`
5.82

Note pEC50 for the molecule shown: `COc1cccc2c1[n+]([O-])c1cccc(OC(=O)N3CCN(C)CC3)c1[n+]2[O-]`
6.00

Query pEC50 for `CN1CCN(C(=O)Oc2cccc3c2[n+]([O-])c2cc(Cl)c(Cl)cc2[n+]3[O-])CC1`
6.47

====

test system: NRK; experiment: Cytotoxicity against rat NRK cells assessed as reduction in cell viability incubated for 24 hrs under 2% O2 condition by WST-1 assay; format: cell-based
// pEC50 lookup, one value per entry
Reminder that pEC50 means the negative base-10 logarithm of the concentration expressed in mol/L.

Supply reported pEC50 belonging to this compound: `CN1CCN(C(=O)Oc2cccc3c2[n+]([O-])c2cccc(O)c2[n+]3[O-])CC1`
4.23

Please give measured pEC50 of the following entry: `Cc1cc2c(cc1C)[n+]([O-])c1c(OC(=O)N3CCN(C)CC3)cccc1[n+]2[O-]`
4.89

Annotate the compound `CN1CCN(C(=O)Oc2cccc3c2[n+]([O-])c2cc(Br)c(Br)cc2[n+]3[O-])CC1` with its measured pEC50.
5.12

Please report the measured pEC50 for `COc1cccc2c1[n+]([O-])c1cccc(OC(=O)N(C)C)c1[n+]2[O-]`
4.54

Give me measured pEC50, please, for this compound: `Cc1cc2c(cc1C)[n+]([O-])c1c(OC(=O)N3CCCC3)cccc1[n+]2[O-]`
5.05

Entry `COc1cccc2c1[n+]([O-])c1cccc(OC(=O)N3CCN(C)CC3)c1[n+]2[O-]` needs its pEC50 filled in; supply it.
4.41

====

system: MOLM-13; assay: Cytotoxicity against human MOLM13 cells assessed as reduction in cell viability incubated for 24 hrs under 19% O2 condition by WST-1 assay; assay type: functional, cell-based; settings: MOLM-13, 24 h
Listed below: EC50 values for each entry.
A number alone suffices; assume µM.

The cases that follow already have their EC50 on record.
Cc1cc2c(cc1C)[n+]([O-])c1c(OC(=O)N3CCN(C)CC3)cccc1[n+]2[O-]; 0.63
CC(C)(C)OC(=O)COc1cccc2c1[n+]([O-])c1ccccc1[n+]2[O-]; 2.2
O=C(Oc1cccc2c1[n+]([O-])c1ccccc1[n+]2[O-])N1CCCC1; 1.5
CN(C)C(=O)Oc1cccc2c1[n+]([O-])c1cccc(O)c1[n+]2[O-]; 0.89

# context switch: different compound, same EC50
Name the recorded EC50 of the compound listed here: `CCOC(=O)COc1cccc2c1[n+]([O-])c1cc(Cl)c(Cl)cc1[n+]2[O-]`
0.41

====

system: NRK; experiment: Cytotoxicity against rat NRK cells assessed as reduction in cell viability incubated for 24 hrs under 2% O2 condition by WST-1 assay; assay type: cell-based
result type: EC50

Take a look at these entries with their results.
[O-][n+]1c2cccc(O)c2[n+]([O-])c2cccc(O)c21; > 50 µM
Cc1cc2c(cc1C)[n+]([O-])c1c(O)cccc1[n+]2[O-]; > 50 µM
CCOC(=O)COc1cccc2c1[n+]([O-])c1cc(C)c(C)cc1[n+]2[O-]; > 100 µM

// switching to the query compound
Please give measured EC50 of the following entry: `[O-][n+]1c2ccccc2[n+]([O-])c2c(O)cccc21`
> 100 µM
